Assay: ATP-based viability of Huh7 replicon cells – cell-based, CellTiter-Glo luminescence, basal, 48 h, cytotoxicity control for HCV replication inhibitor project, primary screen (AID 1143);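 also: Huh7 hepatoma cells carrying a hepatitis C replication reporter with no stimulus; test concentration not given here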
Conditions: higher = more signal, called active from +8 up or from −8 down
Respond with Satisfied for z-score values of -2 and above, Not satisfied for values below.

# COMPOUND, LABEL CLASS
records = [
    ("C=C(CCCC)/C(=C/C[C@H](OC(=O)c1ccncc1)c1cccc(OCCO)c1)c1cnc2ccccc2c1", "Satisfied"),
    ("COC(=O)C[C@H]1O[C@@]2(C[C@@H]1[Si](C)(C)C)C(=O)N(C)c1ccccc12", "Satisfied"),
    ("COc1ccc(C(O)C2C=CC3C(=O)N(c4ccccc4)C(=O)C3N2Nc2ccc(C#N)cc2)cc1OCc1ccccc1 (stereo not drawn)", "Satisfied"),
    ("CN(C)C(=O)[C@]1(Cc2ccccc2)N=C(c2ccc(OCCCO)cc2)O[C@@H]1c1ccccc1CN=[N+]=[N-]", "Not satisfied"),
    ("O=C1NC(=O)C2C1C=CC(C(O)c1ccc([N+](=O)[O-])cc1)N2Nc1ccccn1 (stereo not drawn)", "Satisfied"),
    ("CO[C@H]1O[C@H](CO)[C@@H](OC(=O)Nc2ccc3c(c2)OCO3)[C@H](OC(=O)Nc2ccccc2-c2ccccc2)[C@H]1OC(=O)Nc1ccccc1-c1ccccc1", "Not satisfied"),
    ("CCCCC(O)C1C=CC2C(=O)N(c3ccccc3)C(=O)C2N1Nc1ccccc1 (stereo not drawn)", "Satisfied"),
    ("COC(=O)C1(Cc2ccccc2)C=C2C(=C(C)C(=O)C2C)CN1 (stereo not drawn)", "Satisfied"),
]
